FYI, the data here is from paper PMC3174232.

target.or.test.system: hα4β2-T58K nAChRs (Homo sapiens, UniProt P17787+P43681, T84K)
Construct: Human nAChR α4 and β2 full-length cDNAs in the vector pSP64 (poly A); expressed in transfected cells; host or cells: HEK ts201 cells
Sequence (P43681 27-627, stated change not applied): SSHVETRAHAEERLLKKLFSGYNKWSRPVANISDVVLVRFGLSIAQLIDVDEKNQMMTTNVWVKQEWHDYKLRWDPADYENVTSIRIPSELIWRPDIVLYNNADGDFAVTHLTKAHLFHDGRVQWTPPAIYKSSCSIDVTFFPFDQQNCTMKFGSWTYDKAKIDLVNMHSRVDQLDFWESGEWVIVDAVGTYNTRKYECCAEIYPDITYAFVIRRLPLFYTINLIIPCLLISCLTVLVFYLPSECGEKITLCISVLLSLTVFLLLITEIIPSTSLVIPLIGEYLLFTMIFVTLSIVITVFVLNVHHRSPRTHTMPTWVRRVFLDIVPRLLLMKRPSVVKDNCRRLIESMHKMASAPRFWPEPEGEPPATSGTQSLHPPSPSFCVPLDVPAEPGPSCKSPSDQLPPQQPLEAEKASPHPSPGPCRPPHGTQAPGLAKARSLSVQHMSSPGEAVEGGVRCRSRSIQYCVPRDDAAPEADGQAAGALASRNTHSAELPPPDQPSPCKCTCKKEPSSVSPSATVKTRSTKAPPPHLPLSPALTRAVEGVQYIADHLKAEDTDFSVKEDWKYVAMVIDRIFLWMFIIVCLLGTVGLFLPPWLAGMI
Sequence (P17787 26-502 T84K): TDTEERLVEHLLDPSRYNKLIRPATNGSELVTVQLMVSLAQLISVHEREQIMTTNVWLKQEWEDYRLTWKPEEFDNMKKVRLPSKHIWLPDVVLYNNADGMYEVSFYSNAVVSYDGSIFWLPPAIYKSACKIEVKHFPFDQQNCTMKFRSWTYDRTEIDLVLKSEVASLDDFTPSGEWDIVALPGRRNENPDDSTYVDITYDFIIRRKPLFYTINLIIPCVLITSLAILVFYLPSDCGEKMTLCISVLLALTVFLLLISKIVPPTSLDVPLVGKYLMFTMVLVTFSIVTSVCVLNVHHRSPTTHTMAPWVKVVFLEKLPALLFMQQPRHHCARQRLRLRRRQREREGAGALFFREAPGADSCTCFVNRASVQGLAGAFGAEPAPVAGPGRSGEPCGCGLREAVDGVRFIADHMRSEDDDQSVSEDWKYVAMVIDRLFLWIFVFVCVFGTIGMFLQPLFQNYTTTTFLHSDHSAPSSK
procedure.summary: Calcium accumulation assay, HEK ts201 cells transiently expressing hα4β2 β2-T58K mutant nAChRs
Type: cell-based
condition.summary: read-out: IC50
# reported IC50; entries follow
// note: answer is a bare numeric in µM

                                   molecule  endpoint_unit  readout_value
0  CNC1(C)C2CCC(C2)C1(C)C (centres unmarked)             µM            0.2

(Q) Notebook entry, hα4β2-T58K nAChRs (Homo sapiens, UniProt P17787+P43681, T84K) assay: IC50 of O=C(OCC1CCCN(CCCc2ccccc2)C1)c1ccccc1-c1ccccc1 (centres unmarked) = ?
(A) 71.8
